Reference source for all entries: the Human Domainome abundance scans (Beltran et al. 2025)

B1: Dystrobrevin alpha, residues 235 to 294; numbered along this chain, Q9Y4J8 (parent)
chain: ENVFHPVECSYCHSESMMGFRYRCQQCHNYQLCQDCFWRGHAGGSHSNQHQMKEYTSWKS

variants of: B1; experiment: abundance fitness (aPCA) (normalised: wild type 0, dead -1); higher = more abundant; growth selection in yeast, the domain comes from the species named; settings: Homo sapiens
assay metric: abundance fitness

{"biosequence": "ENVFHPVECSYCHSESMMGFRYRCQQCHNYQLCQDCFWRGHAGGSHSNQHQMKEYTSWDS [K59D]", "assay metric": "abundance fitness", "observed measurement": 0.356}
{"biosequence": "ENVFHPVECSYCHYESMMGFRYRCQQCHNYQLCQDCFWRGHAGGSHSNQHQMKEYTSWKS [S14Y]", "assay metric": "abundance fitness", "observed measurement": -0.324}
{"biosequence": "ENVFHPVECSYCHSESMMGFRYRCQQCHNYQLCQDCFWRGHAGGSHSNQHQMKEYTSWKL [S60L]", "assay metric": "abundance fitness", "observed measurement": -0.196}
{"biosequence": "ENVFHPVECSYCHSESMMGFRYRCQQCHNYQLCQDQFWRGHAGGSHSNQHQMKEYTSWKS [C36Q]", "assay metric": "abundance fitness", "observed measurement": -0.723}
{"biosequence": "ENVFHPVECSYCHSESMMGFRYRCQQCHNYQLCQDCFWRGHHGGSHSNQHQMKEYTSWKS [A42H]", "assay metric": "abundance fitness", "observed measurement": 0.05}
{"biosequence": "ENVFHPVECSYCHSESMMGFRYRCQQCHNYQLCQDCFWRGHAGGSHSNQHQMKEYTSMKS [W58M]", "assay metric": "abundance fitness", "observed measurement": 0.251}
{"biosequence": "ENVFHPVECSYCHSESMMGFRYRCQQCHNYQLCQDCFWRGHAGGSHSNQHQMKEYTSWGS [K59G]", "assay metric": "abundance fitness", "observed measurement": 0.229}
{"biosequence": "ENVFHPVECSYCHSESMMGFRYRCQQCHNYQLCQDCFWRGHAGGSHSNQHQMKEYTGWKS [S57G]", "assay metric": "abundance fitness", "observed measurement": -0.044}
{"biosequence": "ENVFHPVECSYCHSESMMGFRYRCQQCHNYQLCQDCFWRGHAGGSHSWQHQMKEYTSWKS [N48W]", "assay metric": "abundance fitness", "observed measurement": -0.532}
{"biosequence": "ENVFHPVECSYCHSESMMGFYYRCQQCHNYQLCQDCFWRGHAGGSHSNQHQMKEYTSWKS [R21Y]", "assay metric": "abundance fitness", "observed measurement": -0.394}
{"biosequence": "ENVFHPVECSYCHTESMMGFRYRCQQCHNYQLCQDCFWRGHAGGSHSNQHQMKEYTSWKS [S14T]", "assay metric": "abundance fitness", "observed measurement": -0.026}
{"biosequence": "ENVFHPVQCSYCHSESMMGFRYRCQQCHNYQLCQDCFWRGHAGGSHSNQHQMKEYTSWKS [E8Q]", "assay metric": "abundance fitness", "observed measurement": -0.155}
{"biosequence": "ENVFHPVECSYCHSESMMGFRYRCQQCHNYQLCQDCFWRGHQGGSHSNQHQMKEYTSWKS [A42Q]", "assay metric": "abundance fitness", "observed measurement": -0.071}
{"biosequence": "ENVFHPVECSYCHSESMMGFRYRCQQCHNYQLCQDCFWRGKAGGSHSNQHQMKEYTSWKS [H41K]", "assay metric": "abundance fitness", "observed measurement": 0.089}
{"biosequence": "ENVFHPVECSYCHSESMMGFRYRCQQCHNYQCCQDCFWRGHAGGSHSNQHQMKEYTSWKS [L32C]", "assay metric": "abundance fitness", "observed measurement": 0.038}
{"biosequence": "ENVFHPVECSYCHSESMMGFRYRCQQAHNYQLCQDCFWRGHAGGSHSNQHQMKEYTSWKS [C27A]", "assay metric": "abundance fitness", "observed measurement": -0.727}
{"biosequence": "ENVFHPVECSYCHSESMMGFRYRCQQCHNYQLCQDCFWRGHAGGSHSNQHQMKEYWSWKS [T56W]", "assay metric": "abundance fitness", "observed measurement": -0.605}
{"biosequence": "EWVFHPVECSYCHSESMMGFRYRCQQCHNYQLCQDCFWRGHAGGSHSNQHQMKEYTSWKS [N2W]", "assay metric": "abundance fitness", "observed measurement": -0.285}
{"biosequence": "ENVFHPVECSYCHSESMMGFRYRCQQCHNYQLCQDCFWRGHAGGSHSNQHQMKECTSWKS [Y55C]", "assay metric": "abundance fitness", "observed measurement": 0.209}
{"biosequence": "ENVFHPVECSYCHSESMMGFRYRCQQCHNYPLCQDCFWRGHAGGSHSNQHQMKEYTSWKS [Q31P]", "assay metric": "abundance fitness", "observed measurement": -0.536}
{"biosequence": "ENVFHPHECSYCHSESMMGFRYRCQQCHNYQLCQDCFWRGHAGGSHSNQHQMKEYTSWKS [V7H]", "assay metric": "abundance fitness", "observed measurement": -0.055}
{"biosequence": "ENVFHPVECSYCHSESMMGFRYRCQQCHNYQLCQDCFWRGHAGGSHSNQHQMKEATSWKS [Y55A]", "assay metric": "abundance fitness", "observed measurement": -0.064}
{"biosequence": "ENVFHPVECSYCHSESMMGCRYRCQQCHNYQLCQDCFWRGHAGGSHSNQHQMKEYTSWKS [F20C]", "assay metric": "abundance fitness", "observed measurement": 0.14}
{"biosequence": "ENVFHPVECSYCHSESMMGFRYRCQQCHNYQLCQDCFWRGHAGGSHSNTHQMKEYTSWKS [Q49T]", "assay metric": "abundance fitness", "observed measurement": 0.072}
{"biosequence": "ENVFHPVEPSYCHSESMMGFRYRCQQCHNYQLCQDCFWRGHAGGSHSNQHQMKEYTSWKS [C9P]", "assay metric": "abundance fitness", "observed measurement": -0.969}
{"biosequence": "ENVFHPVECSYCHSESMMGFRYRCQQCHNYQLCQDCFWRGHAGGSHSNQGQMKEYTSWKS [H50G]", "assay metric": "abundance fitness", "observed measurement": -0.493}
{"biosequence": "ENVFHPVECRYCHSESMMGFRYRCQQCHNYQLCQDCFWRGHAGGSHSNQHQMKEYTSWKS [S10R]", "assay metric": "abundance fitness", "observed measurement": -0.476}
{"biosequence": "ENVFHPVECSYCHSESMMGFRYPCQQCHNYQLCQDCFWRGHAGGSHSNQHQMKEYTSWKS [R23P]", "assay metric": "abundance fitness", "observed measurement": -0.509}
{"biosequence": "ENVFHPPECSYCHSESMMGFRYRCQQCHNYQLCQDCFWRGHAGGSHSNQHQMKEYTSWKS [V7P]", "assay metric": "abundance fitness", "observed measurement": -0.009}
{"biosequence": "ENVFHPVECSYCHSESAMGFRYRCQQCHNYQLCQDCFWRGHAGGSHSNQHQMKEYTSWKS [M17A]", "assay metric": "abundance fitness", "observed measurement": -0.037}
{"biosequence": "ENVFHPVECSYCHSESMMGFRYRCQQCHNYQLCQDCFWTGHAGGSHSNQHQMKEYTSWKS [R39T]", "assay metric": "abundance fitness", "observed measurement": -0.107}
{"biosequence": "ENVFHPVECSYCHSESMMGFRYRCQQCHNYQLCQDCFWRGHAGGSHSNQHQMKEYTDWKS [S57D]", "assay metric": "abundance fitness", "observed measurement": 0.071}
{"biosequence": "ENVFHPVECSYCHSESMMGFRYRCQQCHNYQLCQDLFWRGHAGGSHSNQHQMKEYTSWKS [C36L]", "assay metric": "abundance fitness", "observed measurement": -0.817}
{"biosequence": "ENVFHPVECSYCHSESMMGFRYRCQQCHNYQLCQDCFWRGHAGGSASNQHQMKEYTSWKS [H46A]", "assay metric": "abundance fitness", "observed measurement": -0.186}
{"biosequence": "ENVFHPVECSYCHSESMMGFRYRCQQCHNYQLCQRCFWRGHAGGSHSNQHQMKEYTSWKS [D35R]", "assay metric": "abundance fitness", "observed measurement": -0.089}
{"biosequence": "ERVFHPVECSYCHSESMMGFRYRCQQCHNYQLCQDCFWRGHAGGSHSNQHQMKEYTSWKS [N2R]", "assay metric": "abundance fitness", "observed measurement": -0.109}
{"biosequence": "ENVFHPVECSYCHSESMMGFRYRCQQCHNYQLCQDCFWRGDAGGSHSNQHQMKEYTSWKS [H41D]", "assay metric": "abundance fitness", "observed measurement": -0.296}
{"biosequence": "ENVFHPVECSYCHSESMMGFRYRCQQCHNCQLCQDCFWRGHAGGSHSNQHQMKEYTSWKS [Y30C]", "assay metric": "abundance fitness", "observed measurement": -0.554}
{"biosequence": "ENVFHPVECSYCHSESMMGFRYRCQQCHNYQLCQDCFWRGHAGGSHSYQHQMKEYTSWKS [N48Y]", "assay metric": "abundance fitness", "observed measurement": -0.318}
{"biosequence": "ENVFHPVEASYCHSESMMGFRYRCQQCHNYQLCQDCFWRGHAGGSHSNQHQMKEYTSWKS [C9A]", "assay metric": "abundance fitness", "observed measurement": -1.12}
{"biosequence": "ENVFHPVECSYCQSESMMGFRYRCQQCHNYQLCQDCFWRGHAGGSHSNQHQMKEYTSWKS [H13Q]", "assay metric": "abundance fitness", "observed measurement": -0.172}
{"biosequence": "ENVFHPVECSYCHSESMMGFRYRCQQCHNYQLCQDCFWRGHAGMSHSNQHQMKEYTSWKS [G44M]", "assay metric": "abundance fitness", "observed measurement": -0.384}
{"biosequence": "ENVFHPVECSYCNSESMMGFRYRCQQCHNYQLCQDCFWRGHAGGSHSNQHQMKEYTSWKS [H13N]", "assay metric": "abundance fitness", "observed measurement": -0.169}
{"biosequence": "ENVFHPVECSYCHSESHMGFRYRCQQCHNYQLCQDCFWRGHAGGSHSNQHQMKEYTSWKS [M17H]", "assay metric": "abundance fitness", "observed measurement": 0.116}
{"biosequence": "ENVFHPVECSYCHSESMMGFRYRCQQCHNYQLCQDCFWRGHAGGSHSNQQQMKEYTSWKS [H50Q]", "assay metric": "abundance fitness", "observed measurement": -0.509}
{"biosequence": "ENVFHPVECSYCHSESMMGFRYRCQQCHKYQLCQDCFWRGHAGGSHSNQHQMKEYTSWKS [N29K]", "assay metric": "abundance fitness", "observed measurement": -0.156}
